- assay_name: Intrinsic clearance in CD-1 mouse liver microsomes in presence of NADPH up to 30 mins by UPLC-MS/MS analysis
- Assay type: ADME, microsome
- recorded_conditions: 0.5 h
property_label: intrinsic clearance (mL/min/g)

> print(dat)
                           structure.smiles  measured.value
1    COc1cccc(CCOc2cc(N3CCOCC3)sc2C(N)=O)c1              10
2         NC(=O)c1sc(N2CCOCC2)cc1OCc1ccccc1              14
3  CCOC(=O)NC(=O)c1sc(N2CCOCC2)cc1OCCc1ccccc1               1
4       O=C(NO)c1sc(N2CCOCC2)cc1OCCc1ccccc1               6
5       NC(=O)c1ccc(N2CCOCC2)cc1OCCc1ccccc1              12
6       NC(=O)c1sc(CN2CCOCC2)cc1OCCc1ccccc1               3
